Values compiled from the Kinase Knowledgebase extract (Sharma et al. 2016).

target: MAPK14 (human) (UniProt Q16539); assay: Inhibition of LPS Induced TNF-alpha Production in THP1 Cells
Sequence (Q16539 whole entry, looked up): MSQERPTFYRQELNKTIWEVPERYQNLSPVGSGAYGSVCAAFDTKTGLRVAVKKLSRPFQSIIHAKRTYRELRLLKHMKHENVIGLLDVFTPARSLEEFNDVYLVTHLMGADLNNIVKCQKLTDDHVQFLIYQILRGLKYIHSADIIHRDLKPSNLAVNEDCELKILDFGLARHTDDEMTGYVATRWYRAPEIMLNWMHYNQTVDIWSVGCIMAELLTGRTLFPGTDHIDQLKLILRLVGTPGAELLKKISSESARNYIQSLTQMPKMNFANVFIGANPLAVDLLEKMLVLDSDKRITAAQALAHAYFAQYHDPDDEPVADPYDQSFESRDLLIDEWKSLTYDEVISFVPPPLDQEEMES

{"entry-smiles": "O=c1c(-c2ccc(F)cc2)c(-c2ccnc(Nc3ccccn3)n2)n2n1CCC2", "IC50 / nM": 600}
{"entry-smiles": "O=c1c(-c2ccc(F)cc2)c(-c2ccnc(Nc3c(Cl)cccc3Cl)n2)n2n1CCC2", "IC50 / nM": 4}
{"entry-smiles": "O=c1c(-c2ccc(F)cc2)c(-c2ccnc(Nc3ccccc3)n2)n2n1CCC2", "IC50 / nM": 80}

###

# Lookup of reported pIC50 keyed by entry
target: MAPK14 (human); assay: Inhibition of LPS Induced TNF-alpha Production in THP1 Cells
pIC50: −log10 of the molar value.

{"entry-smiles": "COC[C@H](C)Nc1nccc(-c2c(-c3ccc(F)cc3)c(=O)n3n2CCCC3)n1", "pIC50": 6.27}
{"entry-smiles": "COC[C@H](C)Nc1nccc(-c2c(-c3ccc(F)cc3)c(=O)n3n2CCC3)n1", "pIC50": 7.30}
{"entry-smiles": "C[C@H](Nc1nccc(-c2c(-c3ccc(F)cc3)c(=O)n3n2CCC3)n1)C1CCCCC1", "pIC50": 7.42}
{"entry-smiles": "C[C@H](Nc1nccc(-c2c(-c3ccc(F)cc3)c(=O)n3n2CCC3)n1)c1ccccc1", "pIC50": 8.52}
{"entry-smiles": "CC[C@H](C)Nc1nccc(-c2c(-c3ccc(F)cc3)c(=O)n3n2CCCC3)n1", "pIC50": 6.97}
{"entry-smiles": "CC[C@H](C)Nc1nccc(-c2c(-c3ccc(F)cc3)c(=O)n3n2CCC3)n1", "pIC50": 8.70}
{"entry-smiles": "O=c1c(-c2ccc(F)cc2)c(-c2ccnc(Nc3c(F)cccc3F)n2)n2n1CCC2", "pIC50": 8.22}
